FYI, the data here is from ChEMBL document CHEMBL2010689.

- testDescription: AUC in Sprague-Dawley rat at 5 mg/kg, po
- Format: ADME, organism-based
- Parameters: dose 5 mg/kg, route oral
- reportedConditions: plasma
measuredEndpoint: AUC (ng·h/mL)
Give just the numeric value; ng·h/mL need not be written.

Request: Endpoint output: AUC of CC(C)Cn1c2ccc(Nc3ncccn3)cc2c2c3c(c4c(c21)CCc1nn(C)cc1-4)C(=O)NC3 [CEP-11981] . Value?
Result: 8560

* * *

- targetDesc: Vascular endothelial growth factor receptor 1 (Homo sapiens)
- Sequence (P17948 whole entry): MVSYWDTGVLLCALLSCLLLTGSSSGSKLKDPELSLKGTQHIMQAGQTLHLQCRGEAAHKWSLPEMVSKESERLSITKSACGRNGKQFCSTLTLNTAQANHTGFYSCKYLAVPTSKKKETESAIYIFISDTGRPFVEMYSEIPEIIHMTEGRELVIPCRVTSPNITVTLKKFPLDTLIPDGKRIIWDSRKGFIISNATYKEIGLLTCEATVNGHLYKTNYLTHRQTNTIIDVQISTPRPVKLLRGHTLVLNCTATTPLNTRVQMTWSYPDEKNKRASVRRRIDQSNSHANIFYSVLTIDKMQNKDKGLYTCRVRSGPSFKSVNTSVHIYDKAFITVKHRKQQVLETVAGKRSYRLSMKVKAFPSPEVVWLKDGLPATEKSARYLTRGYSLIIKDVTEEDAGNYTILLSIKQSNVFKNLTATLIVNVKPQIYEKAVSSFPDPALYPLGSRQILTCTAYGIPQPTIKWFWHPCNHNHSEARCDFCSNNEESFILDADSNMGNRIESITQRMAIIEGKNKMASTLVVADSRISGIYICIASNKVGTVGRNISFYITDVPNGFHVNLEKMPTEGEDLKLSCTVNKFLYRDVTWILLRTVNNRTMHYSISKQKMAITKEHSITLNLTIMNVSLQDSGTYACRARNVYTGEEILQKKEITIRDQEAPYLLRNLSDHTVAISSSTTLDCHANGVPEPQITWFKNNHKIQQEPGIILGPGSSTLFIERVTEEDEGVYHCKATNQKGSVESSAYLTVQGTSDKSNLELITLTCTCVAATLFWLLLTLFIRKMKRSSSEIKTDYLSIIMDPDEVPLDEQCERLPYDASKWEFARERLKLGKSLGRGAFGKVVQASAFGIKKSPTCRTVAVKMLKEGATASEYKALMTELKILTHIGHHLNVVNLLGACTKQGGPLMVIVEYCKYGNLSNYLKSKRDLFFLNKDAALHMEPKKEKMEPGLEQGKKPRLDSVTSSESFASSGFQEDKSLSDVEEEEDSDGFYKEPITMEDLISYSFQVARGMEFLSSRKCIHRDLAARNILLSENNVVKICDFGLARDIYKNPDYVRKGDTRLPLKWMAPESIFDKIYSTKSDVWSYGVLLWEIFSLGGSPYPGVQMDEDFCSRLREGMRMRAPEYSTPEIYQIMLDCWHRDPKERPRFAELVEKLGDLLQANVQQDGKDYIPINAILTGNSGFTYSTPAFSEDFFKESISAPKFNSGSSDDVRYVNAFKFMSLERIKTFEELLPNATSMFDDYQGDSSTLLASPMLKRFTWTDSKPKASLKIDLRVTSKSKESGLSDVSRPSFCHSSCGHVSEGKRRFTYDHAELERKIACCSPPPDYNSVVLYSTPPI
measuredEndpoint: IC50 (nM)
Give just the numeric value; nM need not be written.

Request: Find IC50 (Vascular endothelial growth factor receptor 1 (Homo sapiens)) for the entry CC(C)Cn1c2ccc(Nc3ncccn3)cc2c2c3c(c4c(c21)CCc1nn(C)cc1-4)C(=O)NC3
Result: 3

* * *

# Vascular endothelial growth factor receptor 2 (Homo sapiens, UniProt P35968): IC50 values follow
# Sequence (P35968 whole entry): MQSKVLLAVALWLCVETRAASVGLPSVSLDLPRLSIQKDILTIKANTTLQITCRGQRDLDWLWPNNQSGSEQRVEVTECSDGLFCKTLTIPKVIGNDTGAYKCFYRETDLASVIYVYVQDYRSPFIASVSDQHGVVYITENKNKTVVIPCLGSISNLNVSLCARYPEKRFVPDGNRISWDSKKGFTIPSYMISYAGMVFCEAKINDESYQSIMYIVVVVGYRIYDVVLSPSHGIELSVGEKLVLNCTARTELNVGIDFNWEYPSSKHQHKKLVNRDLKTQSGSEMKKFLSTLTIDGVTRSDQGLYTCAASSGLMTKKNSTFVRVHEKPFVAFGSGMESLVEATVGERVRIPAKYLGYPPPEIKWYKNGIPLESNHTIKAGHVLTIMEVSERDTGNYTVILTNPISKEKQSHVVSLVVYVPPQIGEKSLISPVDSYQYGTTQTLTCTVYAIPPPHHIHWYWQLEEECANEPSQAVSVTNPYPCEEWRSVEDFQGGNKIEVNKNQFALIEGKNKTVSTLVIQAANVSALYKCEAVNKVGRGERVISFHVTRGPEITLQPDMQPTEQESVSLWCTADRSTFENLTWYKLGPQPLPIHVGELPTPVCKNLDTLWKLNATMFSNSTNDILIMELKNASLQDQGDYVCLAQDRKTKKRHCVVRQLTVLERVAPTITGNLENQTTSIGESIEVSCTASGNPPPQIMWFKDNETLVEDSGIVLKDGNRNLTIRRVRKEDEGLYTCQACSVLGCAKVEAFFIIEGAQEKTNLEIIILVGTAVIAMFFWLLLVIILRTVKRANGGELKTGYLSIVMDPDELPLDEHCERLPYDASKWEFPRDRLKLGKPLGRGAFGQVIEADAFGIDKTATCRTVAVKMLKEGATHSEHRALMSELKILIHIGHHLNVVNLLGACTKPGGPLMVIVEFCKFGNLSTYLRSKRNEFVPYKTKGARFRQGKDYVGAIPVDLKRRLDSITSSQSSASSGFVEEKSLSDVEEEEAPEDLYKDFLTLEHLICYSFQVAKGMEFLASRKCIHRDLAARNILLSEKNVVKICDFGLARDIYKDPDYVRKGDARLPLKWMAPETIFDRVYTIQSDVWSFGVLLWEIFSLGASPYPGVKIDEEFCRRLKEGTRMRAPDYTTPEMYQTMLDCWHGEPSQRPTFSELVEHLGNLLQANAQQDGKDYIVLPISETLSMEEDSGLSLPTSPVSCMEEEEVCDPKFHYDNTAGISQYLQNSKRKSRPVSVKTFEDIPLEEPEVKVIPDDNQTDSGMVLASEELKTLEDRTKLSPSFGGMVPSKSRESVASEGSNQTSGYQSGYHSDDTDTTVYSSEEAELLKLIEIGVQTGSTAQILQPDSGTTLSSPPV

Request: Endpoint output: IC50 of CC(C)Cn1c2ccc(Nc3ncccn3)cc2c2c3c(c4c(c21)CCc1nn(C)cc1-4)C(=O)NC3 . Value?
Result: 4 nM

Request: And then Cc1cc(C)nc(Nc2ccc3c(c2)c2c4c(c5c(c2n3CC(C)C)CCc2nn(C)cc2-5)C(=O)NC4)n1 , what is it?
Result: > 3000 nM

* * *

- testDescription: Apparent permeability across human Caco2 cells
- Format: ADME, cell-based
- reportedConditions: Caco-2
measuredEndpoint: Papp

Request: Endpoint output: Papp of CC(C)Cn1c2ccc(Nc3ncccn3)cc2c2c3c(c4c(c21)CCc1nn(C)cc1-4)C(=O)NC3 . Value?
Result: > 4 ×10⁻⁶ cm/s

* * *

- testDescription: Antiangiogenic activity in HMVEC assessed as inhibition of VEGF-induced survival
- Format: functional, Homo sapiens
measuredEndpoint: pEC50
The read-out pEC50 is expressed as -log10 of concentration in moles per litre.

Request: Endpoint output: pEC50 of CC(C)Cn1c2ccc(Nc3ncccn3)cc2c2c3c(c4c(c21)CCc1nn(C)cc1-4)C(=O)NC3 . Value?
Result: 8.10

* * *

- testDescription: Metabolic stability in human liver S9 fraction assessed as compound remaining after 2 hrs
- Type: ADME, subcellular
- reportedConditions: read-out: Stability
measuredEndpoint: remaining at 2 h
Put your answer as a value accompanied by its unit after it.

Request: Endpoint output: remaining at 2 h of CC(C)Cn1c2ccc(Nc3ncccn3)cc2c2c3c(c4c(c21)CCc1nn(C)cc1-4)C(=O)NC3 [CEP-11981] . Value?
Result: 79%

Request: And then CCCn1c2ccc(Nc3ncccn3)cc2c2c3c(c4c(c21)CCc1nn(C)cc1-4)C(=O)NC3 , what is it?
Result: 54%

* * *

- targetDesc: Aurora kinase A (Homo sapiens, UniProt O14965)
- Sequence (O14965 whole entry): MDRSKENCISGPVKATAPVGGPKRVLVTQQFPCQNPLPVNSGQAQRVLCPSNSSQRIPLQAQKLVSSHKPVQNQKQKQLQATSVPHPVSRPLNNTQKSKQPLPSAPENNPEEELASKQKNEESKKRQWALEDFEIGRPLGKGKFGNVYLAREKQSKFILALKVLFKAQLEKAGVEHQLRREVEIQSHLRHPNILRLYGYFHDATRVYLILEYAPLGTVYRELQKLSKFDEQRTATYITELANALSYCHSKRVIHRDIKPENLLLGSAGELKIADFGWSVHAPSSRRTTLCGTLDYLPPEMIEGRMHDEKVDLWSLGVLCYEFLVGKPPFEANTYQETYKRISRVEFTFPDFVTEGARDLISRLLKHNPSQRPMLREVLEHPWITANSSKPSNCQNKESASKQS
measuredEndpoint: IC50

Request: Endpoint output: IC50 of CC(C)Cn1c2ccc(Nc3ncccn3)cc2c2c3c(c4c(c21)CCc1nn(C)cc1-4)C(=O)NC3 [CEP-11981] . Value?
Result: 42 nM

* * *

- targetDesc: Cytochrome P450 3A4 (Homo sapiens, UniProt P08684)
- Sequence (P08684 whole entry): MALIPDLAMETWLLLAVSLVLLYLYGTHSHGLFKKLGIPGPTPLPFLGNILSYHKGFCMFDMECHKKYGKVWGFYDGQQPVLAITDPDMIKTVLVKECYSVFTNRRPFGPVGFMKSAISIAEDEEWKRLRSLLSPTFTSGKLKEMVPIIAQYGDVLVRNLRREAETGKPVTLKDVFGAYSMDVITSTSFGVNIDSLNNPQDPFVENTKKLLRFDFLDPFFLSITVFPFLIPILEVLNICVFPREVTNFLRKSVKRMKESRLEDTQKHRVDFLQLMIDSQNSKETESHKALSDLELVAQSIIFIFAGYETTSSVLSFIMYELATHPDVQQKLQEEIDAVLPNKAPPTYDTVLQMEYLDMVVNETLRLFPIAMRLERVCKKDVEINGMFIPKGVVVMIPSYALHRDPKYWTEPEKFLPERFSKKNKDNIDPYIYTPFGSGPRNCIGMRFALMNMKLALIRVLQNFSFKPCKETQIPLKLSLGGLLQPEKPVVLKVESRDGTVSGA
pIC50: −log10 of the molar value.
measuredEndpoint: pIC50

Request: Endpoint output: pIC50 of CC(C)Cn1c2ccc(Nc3ncccn3)cc2c2c3c(c4c(c21)CCc1nn(C)cc1-4)C(=O)NC3 . Value?
Result: < 4.52

* * *

- targetDesc: Proto-oncogene tyrosine-protein kinase receptor Ret (Homo sapiens, UniProt P07949)
- Sequence (P07949 whole entry): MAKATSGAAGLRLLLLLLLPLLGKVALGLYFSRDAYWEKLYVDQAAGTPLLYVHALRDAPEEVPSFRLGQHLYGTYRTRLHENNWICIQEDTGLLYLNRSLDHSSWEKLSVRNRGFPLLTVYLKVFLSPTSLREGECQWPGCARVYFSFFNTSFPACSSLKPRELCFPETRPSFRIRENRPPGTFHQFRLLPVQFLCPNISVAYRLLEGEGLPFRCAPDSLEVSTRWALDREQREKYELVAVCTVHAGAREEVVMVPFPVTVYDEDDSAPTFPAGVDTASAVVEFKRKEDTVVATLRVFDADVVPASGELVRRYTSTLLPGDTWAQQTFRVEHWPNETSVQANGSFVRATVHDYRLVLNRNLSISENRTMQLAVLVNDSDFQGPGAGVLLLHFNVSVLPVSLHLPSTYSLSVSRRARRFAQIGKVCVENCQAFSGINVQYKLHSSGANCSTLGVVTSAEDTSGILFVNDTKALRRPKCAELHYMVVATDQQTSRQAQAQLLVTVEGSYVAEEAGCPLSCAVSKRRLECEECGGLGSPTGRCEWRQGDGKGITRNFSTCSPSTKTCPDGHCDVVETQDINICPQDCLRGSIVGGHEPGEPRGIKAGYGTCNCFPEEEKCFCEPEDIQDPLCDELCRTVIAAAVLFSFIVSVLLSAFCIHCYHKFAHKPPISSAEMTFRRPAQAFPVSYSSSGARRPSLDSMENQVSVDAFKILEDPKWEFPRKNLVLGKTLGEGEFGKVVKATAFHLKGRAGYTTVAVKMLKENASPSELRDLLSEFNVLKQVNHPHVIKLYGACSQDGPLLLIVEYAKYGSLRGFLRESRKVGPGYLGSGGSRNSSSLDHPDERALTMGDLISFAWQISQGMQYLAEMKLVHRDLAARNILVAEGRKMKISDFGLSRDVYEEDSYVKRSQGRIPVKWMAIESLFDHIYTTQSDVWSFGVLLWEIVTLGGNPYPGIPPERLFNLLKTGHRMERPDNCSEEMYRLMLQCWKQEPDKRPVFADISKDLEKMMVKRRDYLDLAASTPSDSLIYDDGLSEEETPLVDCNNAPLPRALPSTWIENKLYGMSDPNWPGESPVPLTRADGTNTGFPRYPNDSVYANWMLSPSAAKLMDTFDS
measuredEndpoint: IC50 (nM)
Give just the numeric value; nM need not be written.

Request: Endpoint output: IC50 of CC(C)Cn1c2ccc(Nc3ncccn3)cc2c2c3c(c4c(c21)CCc1nn(C)cc1-4)C(=O)NC3 . Value?
Result: 5

* * *

- testDescription: Antiangiogenic activity in BAEC assessed as inhibition of VEGF-induced proliferation
- Assay type: functional
- reportedConditions: Bos taurus
measuredEndpoint: pEC50
The read-out pEC50 is expressed as -log10 of concentration in moles per litre.

Request: Endpoint output: pEC50 of CC(C)Cn1c2ccc(Nc3ncccn3)cc2c2c3c(c4c(c21)CCc1nn(C)cc1-4)C(=O)NC3 . Value?
Result: 8.10

* * *

- targetDesc: UniProt:P35968
pIC50: −log10 of the molar value.
measuredEndpoint: pIC50

Request: Endpoint output: pIC50 of CC(C)Cn1c2ccc(Nc3ncccn3)cc2c2c3c(c4c(c21)CCc1nn(C)cc1-4)C(=O)NC3 . Value?
Result: > 8.00

* * *

- testDescription: Antiangiogenic activity in HMVEC assessed as inhibition of FGF-induced survival
- Assay type: functional, Homo sapiens
measuredEndpoint: pEC50
The read-out pEC50 is expressed as -log10 of concentration in moles per litre.

Request: Endpoint output: pEC50 of CC(C)Cn1c2ccc(Nc3ncccn3)cc2c2c3c(c4c(c21)CCc1nn(C)cc1-4)C(=O)NC3 . Value?
Result: 8.10
